Give IC50 for every item shown.
- measuredTarget: UniProt:P07900
- measurementDescription: Inhibition of FITC-geldanamycin binding to recombinant human full-length C-terminal His-tagged HSP90alpha […] (1 to 732 residues) expressed in Escherichia coli after 1 hr by fluorescence polarization assay
Don't forget the unit after the number, please.

Exercise: What does the data say about its IC50? Entry: `COc1cc(OC)c(OC)cc1CC(=O)c1ccc2c(c1OC)C=CC(C)(C)O2`
Key: 60 nM

Exercise: What about `CC(C)c1cc(C(=O)N2Cc3ccc(CN4CCN(C)CC4)cc3C2)c(O)cc1O` ?
Key: 20 nM

Exercise: What about `COc1ccc(CC(=O)c2ccc3c(c2OC)CCC(C)(C)O3)cc1OC` ?
Key: 150 nM

Exercise: What about `COc1cc2c(cc1OC)[C@@H]1C(=O)c3ccc4c(c3O[C@@H]1CO2)C=CC(C)(C)O4` ?
Key: 1630 nM

Exercise: What about `COc1ccc(CC(=O)c2ccc3c(c2OC)C=CC(C)(C)O3)cc1OC` ?
Key: 90 nM

* * *

- System: NCI-H1299
- measurementDescription: Antiproliferative activity against human NCI-H1299 cells assessed as inhibition of cell growth at 0.1 uM after 72 hrs by MTT assay relative to control
- Assay type: functional
- measurementSetup: NCI-H1299, 72 h, read-out: GI
Give inhibition of growth at 0.1 µM for every item shown.
Give a bare numeral; the unit % is implied.

Exercise: What does the data say about its inhibition of growth at 0.1 µM? Entry: CC(C)c1cc(C(=O)N2Cc3ccc(CN4CCN(C)CC4)cc3C2)c(O)cc1O [ONALESPIB]
Key: 94.8

Exercise: What about COc1ccc(C(Cc2ccccc2)C(=O)c2ccc3c(c2OCc2ccccc2)C=CC(C)(C)O3)cc1OC (stereo not given) ?
Key: 2.1

Exercise: What about `COc1ccc(OC)c(CC(=O)c2ccc3c(c2OC)C=CC(C)(C)O3)c1` ?
Key: 4.7

Exercise: What about COc1ccc(C(C)C(=O)c2ccc3c(c2OC)C=CC(C)(C)O3)cc1 (stereo not given) ?
Key: 7.1

Exercise: What about `COc1cc(OC)c(OC)cc1CC(=O)c1ccc2c(c1OC)C=CC(C)(C)O2` ?
Key: 15.3

* * *

- Test system: NCI-H1299
- measurementDescription: Antiproliferative activity against human NCI-H1299 cells assessed as inhibition of cell growth at 0.1 uM after 72 hrs by MTT assay relative to control
- Format: functional
- measurementSetup: NCI-H1299, 72 h, read-out: GI
observable: inhibition of growth at 0.1 µM (%)
Give a bare numeral; the unit % is implied.

Exercise: What does the data say about its inhibition of growth at 0.1 µM? Entry: `COc1ccc(CC(=O)c2ccc3c(c2O)C=CC(C)(C)O3)cc1OC`
Key: 4.8

Exercise: What about `COc1ccc(CC(=O)c2ccc3c(c2OC)C=CC(C)(C)O3)cc1` ?
Key: 3.6

Exercise: What about `COc1ccc(CC(=O)c2ccc3c(c2OC)C=CC(C)(C)O3)cc1OC` ?
Key: 5.1

Exercise: What about `COc1ccc(CC(=O)c2ccc3c(c2OC(C)=O)C=CC(C)(C)O3)cc1OC` ?
Key: 4.1

Exercise: What about `COc1cc(/C=C/C(=O)c2ccc3c(c2O)C=CC(C)(C)O3)cc(OC)c1OC` ?
Key: 3.8

Exercise: What about COc1c(C(=O)C(C)c2ccccc2)ccc2c1C=CC(C)(C)O2 (stereo unspecified) ?
Key: 4.5

* * *

- Tested on: NCI-H1299
- measurementDescription: Antiproliferative activity against human NCI-H1299 cells assessed as inhibition of cell growth at 10 uM after 72 hrs by MTT assay relative to control
- Assay type: functional
- measurementSetup: NCI-H1299, 72 h, read-out: GI
observable: inhibition of growth at 10 µM (%)
Give a bare numeral; the unit % is implied.

Exercise: What does the data say about its inhibition of growth at 10 µM? Entry: COc1ccc(C(C)C(=O)c2ccc3c(c2OC)C=CC(C)(C)O3)cc1 (stereo unspecified)
Key: 13.3

Exercise: What about `CC1(C)C=Cc2c(ccc(C(=O)Cc3ccccc3)c2O)O1` ?
Key: 15.1

Exercise: What about `COc1c(C(=O)Cc2ccc3c(c2)OCCO3)ccc2c1C=CC(C)(C)O2` ?
Key: 28.1

Exercise: What about `COc1cc(CC(=O)c2ccc3c(c2O)C=CC(C)(C)O3)cc(OC)c1OC` ?
Key: 49

Exercise: What about `COc1c(C(=O)Cc2ccccc2)ccc2c1C=CC(C)(C)O2` ?
Key: 11.3

Exercise: What about `COc1cc(/C=C/C(=O)c2ccc3c(c2O)C=CC(C)(C)O3)cc(OC)c1OC` ?
Key: 12.3

Exercise: What about `COc1ccc(CC(=O)c2ccc3c(c2OC)CCC(C)(C)O3)cc1OC` ?
Key: 49.3

Exercise: What about `COc1cc(OC)c(OC)cc1CC(=O)c1ccc2c(c1OC)C=CC(C)(C)O2` ?
Key: 72.1

Exercise: What about `COc1ccc(OC)c(CC(=O)c2ccc3c(c2OC)C=CC(C)(C)O3)c1` ?
Key: 38.2

Exercise: What about COc1ccc(C(Cc2ccccc2)C(=O)c2ccc3c(c2OCc2ccccc2)C=CC(C)(C)O3)cc1OC (stereo unspecified) ?
Key: 9.9

Exercise: What about `COc1ccc(CC(=O)c2ccc3c(c2O)C=CC(C)(C)O3)cc1` ?
Key: 16.1

Exercise: What about `COc1ccc(CC(=O)c2ccc3c(c2O)C=CC(C)(C)O3)cc1OC` ?
Key: 45.3

Exercise: What about `COc1ccc(/C=C/C(=O)c2ccc3c(c2O)C=CC(C)(C)O3)cc1OC` ?
Key: 10.7

Exercise: What about `COc1cc2c(cc1OC)[C@@H]1C(=O)c3ccc4c(c3O[C@@H]1CO2)C=CC(C)(C)O4` ?
Key: 65.3

Exercise: What about `COc1ccc(CC(=O)c2ccc3c(c2OC)C=CC(C)(C)O3)cc1` ?
Key: 10.6

Exercise: What about `CC1(C)C=Cc2c(ccc(C(=O)Cc3ccc(Cl)c(Cl)c3)c2O)O1` ?
Key: 11.5

Exercise: What about `COc1ccc(CC(=O)c2ccc3c(c2OC)C=CC(C)(C)O3)cc1OC` ?
Key: 47.3

Exercise: What about `COc1ccc(/C=C/c2ccc3c(c2OC)C=CC(C)(C)O3)cc1OC` ?
Key: 14.4

Exercise: What about `CC(C)c1cc(C(=O)N2Cc3ccc(CN4CCN(C)CC4)cc3C2)c(O)cc1O` ?
Key: 95.7

Exercise: What about COc1c(C(=O)C(C)c2ccccc2)ccc2c1C=CC(C)(C)O2 (stereo unspecified) ?
Key: 15.5

Exercise: What about `COc1cc(CC(=O)c2ccc3c(c2OC)C=CC(C)(C)O3)cc(OC)c1` ?
Key: 40.1

* * *

- Tested on: MCF7
- measurementDescription: Antiproliferative activity against human MCF7 cells after 72 hrs by MTT assay
- Format: functional, cell-based
- measurementSetup: MCF7, 72 h
Give IC50 for every item shown.
Give a bare numeral; the unit µM is implied.

Exercise: Query IC50 on MCF7 for `COc1cc(CC(=O)c2ccc3c(c2OC)C=CC(C)(C)O3)cc(OC)c1OC`
Key: 5.08

Exercise: What about `COc1cc(CC(=O)c2ccc3c(c2OC)CCC(C)(C)O3)cc(OC)c1OC` ?
Key: 5.22

Exercise: What about `COc1cc(CC(=O)c2ccc3c(c2O)C=CC(C)(C)O3)cc(OC)c1OC` ?
Key: 11.2

Exercise: What about CC(C)c1cc(C(=O)N2Cc3ccc(CN4CCN(C)CC4)cc3C2)c(O)cc1O [ONALESPIB] ?
Key: 0.29

Exercise: What about `COc1cc(OC)c(OC)cc1CC(=O)c1ccc2c(c1OC)C=CC(C)(C)O2` ?
Key: 2.51

Exercise: What about `COc1ccc(CC(=O)c2ccc3c(c2OC)CCC(C)(C)O3)cc1OC` ?
Key: 7.86

Exercise: What about `COc1ccc(CC(=O)c2ccc3c(c2OC)C=CC(C)(C)O3)cc1OC` ?
Key: 6.88

Exercise: What about COc1cc2c(cc1OC)[C@@H]1C(=O)c3ccc4c(c3O[C@@H]1CO2)C=CC(C)(C)O4 [DEGUELIN] ?
Key: 8.17

* * *

- Test system: NCI-H1299
- measurementDescription: Antiproliferative activity against human NCI-H1299 cells assessed as inhibition of cell growth at 0.1 uM after 72 hrs by MTT assay relative to control
- Format: functional
- measurementSetup: NCI-H1299, 72 h, read-out: GI
observable: inhibition of growth at 0.1 µM (%)
Give a bare numeral; the unit % is implied.

Exercise: What does the data say about its inhibition of growth at 0.1 µM? Entry: `COc1ccc(/C=C/c2ccc3c(c2OC)C=CC(C)(C)O3)cc1OC`
Key: 5.2

Exercise: What about `COc1cc(CC(=O)c2ccc3c(c2OC)C=CC(C)(C)O3)cc(OC)c1OC` ?
Key: 9.6

Exercise: What about COc1cc2c(cc1OC)[C@@H]1C(=O)c3ccc4c(c3O[C@@H]1CO2)C=CC(C)(C)O4 [DEGUELIN] ?
Key: 9.9
